# system.name: Neuronal acetylcholine receptor alpha4/beta2 (Rattus norvegicus)
# protocol.details: Affinity for Nicotinic acetylcholine receptor alpha4-beta2 tested by analogue-induced inhibition of [3H]NIC binding to rat striatal membranes
I'd appreciate it if you could supply Ki values for the items below.
Answers are plain numbers, in µM.

Guide cases for Ki, answers given:
CN1CC[C@@H]2CCc3ccncc3[C@@H]21
0.4
CN1CCC[C@H]1c1ccc[n+]([BH2-]C#N)c1
15.2

Value sought for every listed compound: Ki.
1. CN1CC[C@H]2CCc3ncccc3[C@H]21
2. CN1CC[C@@H]2CCc3cc[n+]([BH2-]C#N)cc3[C@@H]21
3. c1cnc2c(c1)[C@H]1NCC[C@H]1CC2

Output:
1. 12.2
2. 2.4
3. 10.5

====

# system.name: Neuronal acetylcholine receptor subunit alpha-7 (Rattus norvegicus, UniProt Q05941)
# Sequence (Q05941 whole entry): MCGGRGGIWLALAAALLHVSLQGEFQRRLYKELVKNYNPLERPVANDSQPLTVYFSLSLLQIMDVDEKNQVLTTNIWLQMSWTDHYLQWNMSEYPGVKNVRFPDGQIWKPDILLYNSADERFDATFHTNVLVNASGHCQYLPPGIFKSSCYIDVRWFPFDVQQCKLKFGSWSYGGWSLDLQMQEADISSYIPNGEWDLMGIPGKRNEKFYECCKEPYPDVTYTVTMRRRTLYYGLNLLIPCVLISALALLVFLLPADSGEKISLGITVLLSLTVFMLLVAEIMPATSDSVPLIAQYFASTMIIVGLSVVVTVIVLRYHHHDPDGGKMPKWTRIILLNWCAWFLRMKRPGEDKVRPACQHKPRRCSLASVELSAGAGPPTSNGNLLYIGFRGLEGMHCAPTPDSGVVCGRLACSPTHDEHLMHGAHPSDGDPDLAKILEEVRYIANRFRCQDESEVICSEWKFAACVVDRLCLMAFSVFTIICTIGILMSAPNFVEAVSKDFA
# protocol.details: Affinity for alpha-7 neuronal nicotinic acetylcholine receptor subtype determined by inhibition of [3H]-MLA binding to rat brain membranes
value.kind: pKi
Answers are plain numbers, as −log10 of the molar value.

Guide cases for pKi, answers given:
CN1CC[C@@H]2CCc3ccncc3[C@@H]21
6.23
CN1CCC[C@H]1c1ccc[n+]([BH2-]C#N)c1
7.39
c1cncc([C@@H]2CCCN2)c1
5.87

Value sought for every listed compound: pKi.
1. c1cc2c(cn1)[C@@H]1NCC[C@@H]1CC2
2. CN1CC[C@@H]2CCc3cc[n+]([BH2-]C#N)cc3[C@@H]21

Output:
[4.69, 6.22]

====

# system.name: Neuronal acetylcholine receptor subunit alpha-7 (Rattus norvegicus, UniProt Q05941)
# protocol.details: Affinity for alpha-7 neuronal nicotinic acetylcholine receptor subtype determined by inhibition of [3H]-MLA binding to rat brain membranes
value.kind: Ki

Guide cases for Ki, answers given:
c1cnc2c(c1)[C@H]1NCC[C@H]1CC2
> 100 µM
CN1CC[C@H]2CCc3c(ccc[n+]3[BH2-]C#N)[C@H]21
> 100 µM

Read the next record carefully.
Input: State the recorded Ki for this entry: `CN1CC[C@H]2CCc3ncccc3[C@H]21`
Output: > 100 µM

FYI, the data here is from ChEMBL document CHEMBL1134267.
